# Assayed System: PolQ ATPase enzyme (1-894) (Homo sapiens (Human))
# Assay Text: Polθ ATPase enzymatic assay (0.5 nM enzyme concentration), ADP-Glo
# Type: biochemical
# Assay Conditions: average IC50; 0.5 nM PolQ ATPase enzyme (1-894)
Measurement Label: IC50 (nM)

COc1ccc(C(F)(F)F)cc1-c1cn(C)c(=O)cc1C(=O)Nc1nnc(C#CC2CCCOC2)s1 (stereo not shown) [Compound 336] :: 33

I. Cc1cnc(C(F)F)cc1-c1cnccc1C(=O)Nc1nnc(C#CC2CC2)s1 [Compound 279]
II. COc1cnc(Cl)cc1-c1cn(C)c(=O)cc1C(=O)Nc1nnc(C#CC2CC2)s1 [Compound 32]
Query: Please let me know which one, I or II , has a lower measured IC50 value. State your choice using its label.
Response: II
(II: 0.66 nM, I: 1.5 nM)

###

# Assayed System: PolQ ATPase enzyme (1-894) (Homo sapiens (Human), UniProt O75417)
# Sequence (O75417 1-894): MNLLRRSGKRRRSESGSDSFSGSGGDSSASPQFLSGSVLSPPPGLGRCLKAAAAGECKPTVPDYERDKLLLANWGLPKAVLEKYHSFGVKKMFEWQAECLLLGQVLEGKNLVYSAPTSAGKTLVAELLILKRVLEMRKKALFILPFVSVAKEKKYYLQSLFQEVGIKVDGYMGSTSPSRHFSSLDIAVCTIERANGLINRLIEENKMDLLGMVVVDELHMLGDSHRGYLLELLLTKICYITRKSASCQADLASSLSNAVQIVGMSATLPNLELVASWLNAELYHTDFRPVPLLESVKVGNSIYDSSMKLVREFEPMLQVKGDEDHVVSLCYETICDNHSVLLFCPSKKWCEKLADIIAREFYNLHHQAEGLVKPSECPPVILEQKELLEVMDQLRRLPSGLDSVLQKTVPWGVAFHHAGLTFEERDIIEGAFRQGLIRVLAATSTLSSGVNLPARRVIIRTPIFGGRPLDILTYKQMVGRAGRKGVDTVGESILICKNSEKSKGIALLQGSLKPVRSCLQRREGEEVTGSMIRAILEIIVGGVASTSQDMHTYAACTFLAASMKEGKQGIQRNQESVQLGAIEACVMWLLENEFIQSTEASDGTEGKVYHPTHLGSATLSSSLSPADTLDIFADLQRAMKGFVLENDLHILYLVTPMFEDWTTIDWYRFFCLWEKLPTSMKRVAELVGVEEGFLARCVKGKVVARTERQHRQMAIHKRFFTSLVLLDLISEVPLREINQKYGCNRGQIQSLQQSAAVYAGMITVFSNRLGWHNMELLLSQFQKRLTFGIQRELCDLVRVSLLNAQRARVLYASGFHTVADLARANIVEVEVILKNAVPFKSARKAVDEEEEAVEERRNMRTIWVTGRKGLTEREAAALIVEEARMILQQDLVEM
# Assay Text: Polθ ATPase enzymatic assay (0.5 nM enzyme concentration), ADP-Glo
# Assay type: biochemical
# Assay Conditions: average IC50; 0.5 nM PolQ ATPase enzyme (1-894)
# Method: PolQ ATPase enzyme (1-894) at 0.5 nM is incubated with a 10-point concentration response of inhibitors for 15 min at rt in the following buffer: 50 mM Tris Cl pH 7.5, 10% glycerol, 5 mM DTT, 10 mM MgCl2, 0.1 mg/ml BSA. […] Enzymatic reaction proceeds at rt for 180 min ATP consumption is measured using the ADP-Glo assay from Promega. Luminescence is read on the Envision and IC50 are determined using the variable slope 4-parameters equation. […]
Measurement Label: IC50 (nM)

Reference set (4 entries):
COc1cnc(C(F)F)cc1-c1cc(CN2CCN(C)C2=O)ccc1C(=O)Nc1nnc(C#CC2CC2)s1 [Compound 231] :: 1.6
COc1cnc(C(F)F)cc1-c1cc(N2CCN(C)C(=O)C2)ncc1C(=O)Nc1nnc(C#CC2CC2)s1 [Compound 128] :: 4
COc1cnc(C(F)F)cc1-c1cc(C#CC2CCOCC2)ncc1C(=O)Nc1nnc(C#CC2CC2)s1 [Compound 268] :: 0.28
COc1cnc(C(F)F)cc1-c1cc(OC[C@H]2CCCO2)ncc1C(=O)Nc1nnc(C#CC2CC2)s1 [Compound 186] :: 0.79

P. COc1cnc(C(F)F)cc1-c1cc(C#CC(C)(C)CO)ncc1C(=O)Nc1nnc(C#CC2CC2)s1 [Compound 241]
Q. Cc1cnc(Cl)cc1-c1cnccc1C(=O)Nc1nnc(C#CC2CC2)s1 [Compound 299]
R. COc1ccc(Cl)nc1-c1cnccc1C(=O)Nc1nnc(C#CC2CC2)s1 [Compound 339]
S. COc1cnc(C(F)F)cc1-c1cc(C#N)ncc1C(=O)Nc1nnc(C#CC2CC2)s1 [Compound 313]
Query: // ascending sort on recorded IC50 Rank the items, then write their labels in that order.
Response: P, Q, S, R
(P: 0.33 nM, Q: 0.6 nM, S: 0.87 nM, R: 3.4 nM)

###

# Assayed System: PolQ ATPase enzyme (1-894) (Homo sapiens (Human), UniProt O75417)
# Assay Text: Polθ ATPase enzymatic assay (0.5 nM enzyme concentration), ADP-Glo
# Type: biochemical
# Assay Conditions: average IC50; 0.5 nM PolQ ATPase enzyme (1-894)
Measurement Label: IC50 (nM)

1. O=C(Nc1nnc(C#CC2CC2)s1)c1ccncc1-c1cc(Cl)ncc1Cl [Compound 44]
2. COc1cnc(Cl)nc1-c1cc(-c2ccn(C)n2)ncc1C(=O)Nc1nnc(C#CC2CC2)s1 [Compound 417]
3. O=C(Nc1ncc(C#CC2CC2)s1)c1cc(=O)n(Cc2nccs2)cc1-c1cc(C(F)F)ccc1Cl [Compound 208]
4. COc1cnc(C(F)F)cc1-c1cc(-c2cnn(C3CCOCC3)c2)ccc1C(=O)Nc1nnc(C#CC2CC2)s1 [Compound 188]
Query: Can you order these entries from above by IC50? Start with the largest number and work down. Rank the items, then write their labels in that order.
Response: 3, 2, 4, 1
(3: 14 nM, 2: 3.7 nM, 4: 1.9 nM, 1: 0.31 nM)

###

# Assayed System: PolQ ATPase enzyme (1-894) (Homo sapiens (Human), UniProt O75417)
# Assay Text: Polθ ATPase enzymatic assay (0.5 nM enzyme concentration), ADP-Glo
# Format: biochemical
# Assay Conditions: average IC50; 0.5 nM PolQ ATPase enzyme (1-894)
Measurement Label: IC50 (nM)

P. COc1cnc(C(F)F)cc1-c1cc(-c2cnn(C3CCOCC3)c2)ncc1C(=O)Nc1nnc(C#CC2CC2)s1
Q. COc1cnc(C(F)F)cc1-c1cc(N(C)C#N)ccc1C(=O)Nc1nnc(C#CC2CC2)s1
Query: Which one would you say has the larger IC50 value: P , or Q ? State your choice using its label.
Response: Q
(Q: 2.9 nM, P: 0.3 nM)

###

# Assayed System: PolQ ATPase enzyme (1-894) (Homo sapiens (Human), UniProt O75417)
# Assay Text: Polθ ATPase enzymatic assay (0.5 nM enzyme concentration), ADP-Glo
# Type: biochemical
# Assay Conditions: average IC50; 0.5 nM PolQ ATPase enzyme (1-894)
Measurement Label: IC50 (nM)

Reference set (8 entries):
COc1cnc(Cl)cc1-c1cn2c(C(N)=O)cnc2cc1C(=O)Nc1nnc(C#CC2CC2)s1 [Compound 342] :: 13
COc1cnc(C(F)F)cc1-c1cc(N2CCN(C)CC2=O)ncc1C(=O)Nc1nnc(C#CC2CC2)s1 [Compound 194] :: 0.61
COc1ccc(C(F)(F)F)cc1-c1cn(C)c(=O)cc1C(=O)Nc1nnc(C#CC2COC2)s1 [Compound 343] :: 8.4
COc1cnc(C(F)F)cc1-c1cn(C)c(=O)cc1C(=O)Nc1nnc(C2C[C@H]2c2ccc(C#N)cc2)s1 (stereo partly drawn) [Compound 322] :: 1.9
COc1cnc(C(F)F)cc1-c1cc(N2CCC(n3ccnc3)CC2)ncc1C(=O)Nc1nnc(C#CC2CC2)s1 [Compound 125] :: 21
COc1cnc(C(F)F)cc1-c1cc(N2CCOC[C@H]2C)ncc1C(=O)Nc1nnc(C#CC2CC2)s1 [Compound 379] :: 18
COc1cnc(C(F)F)cc1-c1cc(N(C)C)ncc1C(=O)Nc1nnc(C#CC2CC2)s1 [Compound 286] :: 21
CNC(=O)Cc1ccc(C(=O)Nc2ncc(C#CC3CC3)s2)c(-c2cc(C(F)F)ncc2OC)c1 [Compound 204] :: 0.71

A. COc1cnc(C(F)F)cc1-c1cc(N2CC3(COC3)C2)ncc1C(=O)Nc1nnc(C#CC2CC2)s1 [Compound 162]
B. COc1cnc(C(F)F)cc1-c1cc(OC[C@@H]2CCOC2)ncc1C(=O)Nc1nnc(C#CC2CC2)s1 [Compound 148]
C. [2H]C([2H])([2H])Oc1cnc(C(F)F)cc1-c1cc(-c2nnc(C)o2)ccc1C(=O)Nc1nnc(C#CC2CC2)s1 [Compound 406]
D. COc1ncc(Cl)cc1-c1cnccc1C(=O)Nc1nnc(C#CC2CC2)s1 [Compound 344]
E. COc1cnc(C(F)F)cc1-c1cc(C#CC2(O)CCOCC2)ncc1C(=O)Nc1nnc(C#CC2CC2)s1 [Compound 255]
Query: // ascending sort on recorded IC50 Rank the items, then write their labels in that order.
Response: E, B, C, D, A
(E: 0.26 nM, B: 0.93 nM, C: 2.8 nM, D: 4.3 nM, A: 13 nM)

###

# Assayed System: PolQ ATPase enzyme (1-894) (Homo sapiens (Human))
# Assay Text: Polθ ATPase enzymatic assay (0.5 nM enzyme concentration), ADP-Glo
# Assay type: biochemical
# Assay Conditions: average IC50; 0.5 nM PolQ ATPase enzyme (1-894)
Measurement Label: IC50 (nM)

COc1cnc(C2CC2)cc1-c1cnccc1C(=O)Nc1nnc(C#CC2CC2)s1 :: 1.21
COc1cnc(C(F)F)cc1-c1cc(-n2ccnc2)ncc1C(=O)Nc1nnc(C#CC2CC2)s1 :: 0.29
COc1cnc(C(F)F)cc1-c1cc(N2C(=O)[C@H]3CC[C@@H]2C3)ncc1C(=O)Nc1nnc(C#CC2CC2)s1 :: 100
COc1cnc(Cl)cc1-c1cc(N2CCN(C)C2=O)ccc1C(=O)Nc1nnc(C#CC2CC2)s1 :: 2.7
C#C[C@H]1CC1c1nnc(NC(=O)c2ccc(-c3nnc(C)o3)cc2-c2cc(C(F)F)ncc2OC)s1 (stereo partly drawn) :: 4.6
COc1cnc(Cl)cc1-c1cc(N2CCCS2(=O)=O)ccc1C(=O)Nc1nnc(C#CC2CC2)s1 :: 8.1

a. COc1cnc(C(F)F)cc1-c1cc(-c2cnn(C3CCN(C)CC3)c2)ncc1C(=O)Nc1nnc(C#CC2CC2)s1
b. COc1cnc(Cl)cc1-c1cc(C#N)ncc1C(=O)Nc1nnc(C#CC2CC2)s1
Query: Which one would you say has the larger IC50 value: a , or b ? State your choice using its label.
Response: a

###

# Assayed System: PolQ ATPase enzyme (1-894) (Homo sapiens (Human), UniProt O75417)
# Assay Text: Polθ ATPase enzymatic assay (0.5 nM enzyme concentration), ADP-Glo
# Assay type: biochemical
# Assay Conditions: average IC50; 0.5 nM PolQ ATPase enzyme (1-894)
Measurement Label: IC50 (nM)

COc1cnc(Cl)cc1-c1cnccc1C(=O)Nc1nnc(C2CC2c2ccc(OC(F)F)cc2)s1 (stereo not shown) :: 0.36

P. COc1cnc(C(F)F)cc1-c1cc(N2CCC3(CCC3)CC2=O)ncc1C(=O)Nc1nnc(C#CC2CC2)s1
Q. COc1cnc(C(F)F)cc1-c1cc(C2C[C@@H]2C(=O)N(C)C)ncc1C(=O)Nc1nnc(C#CC2CC2)s1 (stereo partly shown)
R. COc1cnc(Cl)cc1-c1cn2cc(C(=O)N(C)C)nc2cc1C(=O)Nc1nnc(C#CC2CC2)s1
Query: // ascending sort on recorded IC50 Rank the items, then write their labels in that order.
Response: P, R, Q
